target: FAP (Homo sapiens (Human)); test: FAP inhibition assay (recombinant enzyme, Z-Gly-Pro-AMC substrate); format: biochemical; settings: Table 3
Sequence (Q12884 whole entry): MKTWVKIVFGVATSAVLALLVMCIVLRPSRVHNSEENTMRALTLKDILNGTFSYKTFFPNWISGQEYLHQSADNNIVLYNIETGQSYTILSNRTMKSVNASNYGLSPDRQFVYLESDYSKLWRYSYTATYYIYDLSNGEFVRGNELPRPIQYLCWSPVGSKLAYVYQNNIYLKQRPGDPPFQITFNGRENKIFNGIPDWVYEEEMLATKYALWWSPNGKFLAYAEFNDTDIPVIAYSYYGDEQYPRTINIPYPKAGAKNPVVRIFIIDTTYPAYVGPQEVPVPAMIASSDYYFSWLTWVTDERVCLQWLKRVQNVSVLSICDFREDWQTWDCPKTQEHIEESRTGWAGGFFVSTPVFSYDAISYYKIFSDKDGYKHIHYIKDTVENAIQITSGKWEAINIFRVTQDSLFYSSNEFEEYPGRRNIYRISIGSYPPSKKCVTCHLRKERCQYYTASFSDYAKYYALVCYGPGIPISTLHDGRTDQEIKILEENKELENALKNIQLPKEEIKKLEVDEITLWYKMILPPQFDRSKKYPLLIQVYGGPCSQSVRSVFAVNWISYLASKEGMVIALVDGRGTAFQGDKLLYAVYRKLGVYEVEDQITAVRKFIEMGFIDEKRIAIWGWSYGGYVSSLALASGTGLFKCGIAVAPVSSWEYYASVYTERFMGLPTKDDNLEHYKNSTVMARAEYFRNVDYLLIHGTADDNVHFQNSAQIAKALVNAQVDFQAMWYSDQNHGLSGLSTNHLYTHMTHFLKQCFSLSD
pIC50: −log10 of the molar value.
So basically: pIC50 at 9 or higher? That is MET. Lower than 9? That is NOT MET.

>>> category("N#C[C@@H]1CCCN1C(=O)CNC(=O)c1ccnc2ccc(OCCCN(Cc3ccc(F)nc3)C(=O)CN3CCN(CC(=O)O)CCN(CC(=O)O)CCN(CC(=O)O)CC3)cc12")
"NOT MET"
>>> category("N#C[C@@H]1CCCN1C(=O)CNC(=O)c1c(F)cnc2ccccc12")
"NOT MET"
>>> category("N#C[C@@H]1CCCN1C(=O)CNC(=O)c1ccnc2cc(F)ccc12")
"NOT MET"

Moving on to another molecule below.
Is reported pIC50 greater than or equal to 9 here: N#C[C@@H]1CCCN1C(=O)CNC(=O)c1ccnc2ccc(OCCCNC(=O)CCc3cn(CCCC[C@H](NC(=O)c4ccc(F)nc4)C(=O)NCCNC(=O)CCC(C(=O)O)N4CCN(CC(=O)O)CCN(CC(=O)O)CCN(CC(=O)O)CC4)nn3)cc12 (stereo partly drawn)
MET

====

molecular target: FAP (Homo sapiens (Human)); assay: FAP inhibition assay (recombinant enzyme, Z-Gly-Pro-AMC substrate); type: biochemical; conditions: Table 4; read-out: FAP Ki
Entries and their measured Ki follow.
Dear colleague, please return just the value in nM, with no unit written.

What value of Ki has been reported for the following compound? N#C[C@@H]1CCCN1C(=O)CNC(=O)c1ccnc2ccc(OCCCNC(=O)CCc3cn(CCCC[C@H](NC(=O)CN4CCN(CC(=O)O)CCN(CC(=O)O)CCN(CC(=O)O)CC4)C(=O)NCCCCCC(=O)N(CCCC[C@H](NC(=O)N[C@@H](CCC(=O)O)C(=O)O)C(=O)O)Cc4ccc(Br)cc4)nn3)cc12
0.37

What value of Ki has been reported for the following compound? N#C[C@@H]1CCCN1C(=O)CNC(=O)c1ccnc2ccc(OCCCNC(=O)CCc3cn(CCOCCOCCOCCC(=O)N[C@@H](CCCCNC(=O)CN4CCN(CC(=O)O)CCN(CC(=O)O)CC4)C(=O)NCCCCC(=O)N(CCCC[C@H](NC(=O)N[C@@H](CCC(=O)O)C(=O)O)C(=O)O)Cc4ccc(Br)cc4)nn3)cc12
0.31

What value of Ki has been reported for the following compound? CC1(C)C(/C=C/C2=C(Oc3ccc(S(=O)(=O)O)cc3)C(=C/C=C3/N(CCCCS(=O)(=O)O)c4ccc(S(=O)(=O)O)cc4C3(C)C)/CCC2)=[N+](CCCCCC(=O)N[C@@H](CCCCn2cc(CCC(=O)NCCCOc3ccc4nccc(C(=O)NCC(=O)N5CCC[C@H]5C#N)c4c3)nn2)C(=O)NCCNC(=O)CCC(C(=O)O)N2CCN(CC(=O)O)CCN(CC(=O)O)CCN(CC(=O)O)CC2)c2ccc(S(=O)(=O)[O-])cc21 (stereo partly drawn)
0.69

====

Entries and their measured IC50 follow.
molecular target: PREP (Homo sapiens (Human), UniProt P48147); assay: PREP inhibition assay (recombinant enzyme, Z-Gly-Pro-AMC substrate); type: biochemical; settings: Table 3
Sequence (P48147 whole entry): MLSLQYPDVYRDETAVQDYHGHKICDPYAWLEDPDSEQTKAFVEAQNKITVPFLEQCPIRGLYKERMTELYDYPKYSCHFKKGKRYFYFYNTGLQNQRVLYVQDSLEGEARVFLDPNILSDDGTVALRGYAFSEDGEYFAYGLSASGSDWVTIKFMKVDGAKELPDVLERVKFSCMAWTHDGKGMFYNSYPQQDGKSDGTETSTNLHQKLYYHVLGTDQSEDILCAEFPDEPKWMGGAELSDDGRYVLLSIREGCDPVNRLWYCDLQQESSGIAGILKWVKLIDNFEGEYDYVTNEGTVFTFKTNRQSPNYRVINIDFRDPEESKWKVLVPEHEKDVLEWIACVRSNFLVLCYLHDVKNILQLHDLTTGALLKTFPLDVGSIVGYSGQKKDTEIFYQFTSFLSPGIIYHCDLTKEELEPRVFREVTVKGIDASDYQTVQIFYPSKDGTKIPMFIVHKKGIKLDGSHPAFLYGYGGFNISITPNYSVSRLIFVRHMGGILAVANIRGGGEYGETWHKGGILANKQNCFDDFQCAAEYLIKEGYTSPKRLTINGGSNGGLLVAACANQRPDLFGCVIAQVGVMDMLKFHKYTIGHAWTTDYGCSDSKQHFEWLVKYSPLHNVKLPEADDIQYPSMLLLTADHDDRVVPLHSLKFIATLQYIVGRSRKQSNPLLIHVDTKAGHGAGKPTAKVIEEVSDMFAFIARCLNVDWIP
Dear colleague, please return just the value in nM, with no unit written.

What value of IC50 has been reported for the following compound? N#C[C@@H]1CCCN1C(=O)CNC(=O)c1ccnc2ccc(OCCF)cc12
1410

What value of IC50 has been reported for the following compound? N#C[C@@H]1CCCN1C(=O)CNC(=O)c1ccnc2ccc(OCCCNC(=O)CCc3cn(CCCC[C@H](NC(=O)c4ccc(F)nc4)C(=O)NCCNC(=O)CCC(C(=O)O)N4CCN(CC(=O)O)CCN(CC(=O)O)CCN(CC(=O)O)CC4)nn3)cc12 (stereo partly drawn)
510

What value of IC50 has been reported for the following compound? N#C[C@@H]1CCCN1C(=O)CNC(=O)c1ccnc2ccc(OCCCNC(=O)CNC(=O)[C@H](CCCCNC(=O)c3ccc(F)nc3)NC(=O)CN3CCN(CC(=O)O)CCN(CC(=O)O)CCN(CC(=O)O)CC3)cc12
1710

====

molecular target: DPPIV (Homo sapiens (Human)); experiment: DPPIV inhibition assay (recombinant enzyme, H-Gly-Pro-AMC substrate); assay type: biochemical
Sequence (P27487 whole entry): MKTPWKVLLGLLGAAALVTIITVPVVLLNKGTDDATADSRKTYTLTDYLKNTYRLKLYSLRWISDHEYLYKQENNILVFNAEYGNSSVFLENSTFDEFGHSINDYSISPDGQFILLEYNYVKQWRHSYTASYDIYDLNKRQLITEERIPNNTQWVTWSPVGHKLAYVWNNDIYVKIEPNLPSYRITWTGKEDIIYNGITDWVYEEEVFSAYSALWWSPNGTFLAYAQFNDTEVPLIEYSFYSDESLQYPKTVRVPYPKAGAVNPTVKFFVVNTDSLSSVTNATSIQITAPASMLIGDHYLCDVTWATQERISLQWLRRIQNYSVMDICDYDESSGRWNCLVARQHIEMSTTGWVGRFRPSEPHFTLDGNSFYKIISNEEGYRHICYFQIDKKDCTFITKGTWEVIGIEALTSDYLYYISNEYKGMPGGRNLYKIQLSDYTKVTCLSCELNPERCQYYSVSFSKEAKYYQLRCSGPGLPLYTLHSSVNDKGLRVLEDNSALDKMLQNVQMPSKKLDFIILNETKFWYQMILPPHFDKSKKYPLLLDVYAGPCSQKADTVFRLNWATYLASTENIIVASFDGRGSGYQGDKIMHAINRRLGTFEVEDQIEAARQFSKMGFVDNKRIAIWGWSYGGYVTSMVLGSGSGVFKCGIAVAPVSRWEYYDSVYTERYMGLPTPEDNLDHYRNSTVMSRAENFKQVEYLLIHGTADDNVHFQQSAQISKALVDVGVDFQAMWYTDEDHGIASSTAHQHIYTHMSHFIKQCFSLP
pIC50: −log10 of the molar value.
Observed property: pIC50

What value of pIC50 has been reported for the following compound? N#C[C@@H]1CCCN1C(=O)CNC(=O)c1ccnc2ccc(OCCF)cc12
< 4.70

====

target: FAP (Homo sapiens (Human)); assay: FAP inhibition assay (recombinant enzyme, Z-Gly-Pro-AMC substrate); assay type: biochemical; conditions: Table 4
Observed property: pIC50
Scale note: pIC50 = -log10(concentration in M).

>>> observed_measurement("N#C[C@@H]1CCCN1C(=O)CNC(=O)c1ccnc2ccc(OCCCNC(=O)CCc3cn(CCOCCOCCOCCC(=O)N[C@@H](CCCCNC(=O)CCC(C(=O)O)N4CCN(CC(=O)O)CCN(CC(=O)O)CCN(CC(=O)O)CC4)C(=O)NCCCCC(=O)N(CCCC[C@H](NC(=O)N[C@@H](CCC(=O)O)C(=O)O)C(=O)O)Cc4ccc(Br)cc4)nn3)cc12 (stereo partly drawn)")
8.47
>>> observed_measurement("N#C[C@@H]1CCCN1C(=O)CNC(=O)c1ccnc2ccc(OCCCNC(=O)CCc3cn(CCCC[C@H](NC(=O)CN4CCN(CC(=O)O)CCN(CC(=O)O)CCN(CC(=O)O)CC4)C(=O)NCCCCCC(=O)N(CCCC[C@H](NC(=O)N[C@@H](CCC(=O)O)C(=O)O)C(=O)O)Cc4ccc(Br)cc4)nn3)cc12")
8.74

// next entry
What value of pIC50 has been reported for the following compound? N#CC1CCCN1C(=O)CNC(=O)c1ccnc2ccc(OCCCNC(=O)CCc3cn(CC[C@H](NC(=O)CN4CCN(CC(=O)O)CCN(CC(=O)O)CC4)C(=O)NCCCCCC(=O)NCCCC[C@H](NC(=O)N[C@@H](CC(=O)O)C(=O)O)C(=O)O)nn3)cc12 (stereo partly drawn)
8.65

====

target: PSMA (Homo sapiens (Human), UniProt Q04609); test: PSMA competitive inhibition assay (NAAG substrate, LNCaP cell lysate); details: Table 4
Sequence (Q04609 whole entry): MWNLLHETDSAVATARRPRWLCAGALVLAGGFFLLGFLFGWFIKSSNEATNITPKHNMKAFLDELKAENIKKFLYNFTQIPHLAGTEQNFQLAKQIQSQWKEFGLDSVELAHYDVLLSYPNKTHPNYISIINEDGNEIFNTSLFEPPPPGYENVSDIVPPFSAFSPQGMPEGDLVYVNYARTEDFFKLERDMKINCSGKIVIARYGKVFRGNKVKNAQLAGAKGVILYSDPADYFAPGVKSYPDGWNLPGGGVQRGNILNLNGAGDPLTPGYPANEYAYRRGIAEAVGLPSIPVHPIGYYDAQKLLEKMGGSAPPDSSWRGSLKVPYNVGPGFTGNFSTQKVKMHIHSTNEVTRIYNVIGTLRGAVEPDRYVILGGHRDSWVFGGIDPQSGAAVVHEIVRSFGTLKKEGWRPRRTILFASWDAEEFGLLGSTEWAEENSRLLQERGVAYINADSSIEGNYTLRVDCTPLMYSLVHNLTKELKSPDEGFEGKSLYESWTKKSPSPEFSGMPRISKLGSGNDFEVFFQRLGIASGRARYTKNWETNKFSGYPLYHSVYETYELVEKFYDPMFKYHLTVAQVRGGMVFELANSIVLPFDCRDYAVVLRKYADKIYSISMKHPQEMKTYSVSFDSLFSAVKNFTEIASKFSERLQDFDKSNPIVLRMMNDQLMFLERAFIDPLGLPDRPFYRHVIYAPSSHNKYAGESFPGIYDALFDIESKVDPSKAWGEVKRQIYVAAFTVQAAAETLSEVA
Entries and their measured IC50 follow.
Don't forget the unit after the value.

These solved cases illustrate the format of a correct answer.
>>> observed_measurement("N#C[C@@H]1CCCN1C(=O)CNC(=O)c1ccnc2ccc(OCCCNC(=O)CCc3cn(CCCC[C@H](NC(=O)CN4CCN(CC(=O)O)CCN(CC(=O)O)CC4)C(=O)NCCCCCC(=O)N(CCCC[C@H](NC(=O)N[C@@H](CCC(=O)O)C(=O)O)C(=O)O)Cc4ccc(Br)cc4)nn3)cc12")
"39.6 nM"
>>> observed_measurement("N#C[C@@H]1CCCN1C(=O)CNC(=O)c1ccnc2ccc(OCCCNC(=O)CCc3cn(CCOCCOCCOCCC(=O)N[C@@H](CCCCNC(=O)CN4CCN(CC(=O)O)CCN(CC(=O)O)CCN(CC(=O)O)CC4)C(=O)NCCCCC(=O)N(CCCC[C@H](NC(=O)N[C@@H](CCC(=O)O)C(=O)O)C(=O)O)Cc4ccc(Br)cc4)nn3)cc12")
"83.2 nM"
>>> observed_measurement("N#C[C@@H]1CCCN1C(=O)CNC(=O)c1ccnc2ccc(OCCCNC(=O)CCc3cn(CCCC[C@H](NC(=O)CN4CCN(CC(=O)O)CCN(CC(=O)O)CCN(CC(=O)O)CC4)C(=O)NCCCCCC(=O)N(CCCC[C@H](NC(=O)N[C@@H](CCC(=O)O)C(=O)O)C(=O)O)Cc4ccc(Br)cc4)nn3)cc12")
"4.71 nM"

// next entry
What value of IC50 has been reported for the following molecule? N#CC1CCCN1C(=O)CNC(=O)c1ccnc2ccc(OCCCNC(=O)CCc3cn(CC[C@H](NC(=O)CN4CCN(CC(=O)O)CCN(CC(=O)O)CC4)C(=O)NCCCCCC(=O)NCCCC[C@H](NC(=O)N[C@@H](CC(=O)O)C(=O)O)C(=O)O)nn3)cc12 (stereo partly shown)
4710 nM

====

test system: U87 tumor; assay: PET imaging and tissue biodistribution in U87 tumor-bearing mice; format: in vivo, mouse; conditions: untitled table; radiolabel and time not given; in %ID/g
So basically: Biodistribution: Bladder at 2 or higher? That is Satisfied. Lower than 2? That is Not satisfied.

>>> category("N#CC1CCCN1C(=O)CNC(=O)c1ccnc2ccc(OCCCNC(=O)CCc3cn(CCCC[C@H](NC(=O)c4ccc(F)nc4)C(=O)NCCNC(=O)CN4CCN(CC(=O)O)CCN(CC(=O)O)CCN(CC(=O)O)CC4)nn3)cc12 (some centres unmarked)")
"Not satisfied"
>>> category("N#C[C@@H]1CCCN1C(=O)CNC(=O)c1ccnc2ccc(OCCCNC(=O)CCOCCOCCOCCNC(=O)C(CCNC(=O)c3ccc(F)nc3)NC(=O)CN3CCN(CC(=O)O)CCN(CC(=O)O)CCN(CC(=O)O)CC3)cc12 (some centres unmarked)")
"Not satisfied"
>>> category("N#CC1CCCN1C(=O)CNC(=O)c1ccnc2ccc(OCCCNC(=O)CCc3cn(CC[C@H](NC(=O)c4ccc(F)nc4)C(=O)NCCNC(=O)CN4CCN(CC(=O)O)CCN(CC(=O)O)CCN(CC(=O)O)CC4)nn3)cc12 (some centres unmarked)")
"Satisfied"
>>> category("N#C[C@@H]1CCCN1C(=O)CNC(=O)c1ccnc2ccc(OCCCN3CC4CN(C(=O)C(CCNC(=O)c5ccc(F)nc5)NC(=O)CN5CCN(CC(=O)O)CCN(CC(=O)O)CCN(CC(=O)O)CC5)CC4C3)cc12 (some centres unmarked)")
"Satisfied"

Is reported Biodistribution: Bladder greater than or equal to 2 here: N#C[C@@H]1CCCN1C(=O)CNC(=O)c1ccnc2ccc(OCCCNC(=O)C(CCNC(=O)c3ccc(F)nc3)NC(=O)CN3CCN(CC(=O)O)CCN(CC(=O)O)CCN(CC(=O)O)CC3)cc12 (some centres unmarked)
Not satisfied
